target: rat collagen, acid soluble, type I, rat tail (Upstate 08-115) (rat) (UniProt P02454); test: dried collagen assay
Sequence (P02454 152-1207, chain 1 of 2): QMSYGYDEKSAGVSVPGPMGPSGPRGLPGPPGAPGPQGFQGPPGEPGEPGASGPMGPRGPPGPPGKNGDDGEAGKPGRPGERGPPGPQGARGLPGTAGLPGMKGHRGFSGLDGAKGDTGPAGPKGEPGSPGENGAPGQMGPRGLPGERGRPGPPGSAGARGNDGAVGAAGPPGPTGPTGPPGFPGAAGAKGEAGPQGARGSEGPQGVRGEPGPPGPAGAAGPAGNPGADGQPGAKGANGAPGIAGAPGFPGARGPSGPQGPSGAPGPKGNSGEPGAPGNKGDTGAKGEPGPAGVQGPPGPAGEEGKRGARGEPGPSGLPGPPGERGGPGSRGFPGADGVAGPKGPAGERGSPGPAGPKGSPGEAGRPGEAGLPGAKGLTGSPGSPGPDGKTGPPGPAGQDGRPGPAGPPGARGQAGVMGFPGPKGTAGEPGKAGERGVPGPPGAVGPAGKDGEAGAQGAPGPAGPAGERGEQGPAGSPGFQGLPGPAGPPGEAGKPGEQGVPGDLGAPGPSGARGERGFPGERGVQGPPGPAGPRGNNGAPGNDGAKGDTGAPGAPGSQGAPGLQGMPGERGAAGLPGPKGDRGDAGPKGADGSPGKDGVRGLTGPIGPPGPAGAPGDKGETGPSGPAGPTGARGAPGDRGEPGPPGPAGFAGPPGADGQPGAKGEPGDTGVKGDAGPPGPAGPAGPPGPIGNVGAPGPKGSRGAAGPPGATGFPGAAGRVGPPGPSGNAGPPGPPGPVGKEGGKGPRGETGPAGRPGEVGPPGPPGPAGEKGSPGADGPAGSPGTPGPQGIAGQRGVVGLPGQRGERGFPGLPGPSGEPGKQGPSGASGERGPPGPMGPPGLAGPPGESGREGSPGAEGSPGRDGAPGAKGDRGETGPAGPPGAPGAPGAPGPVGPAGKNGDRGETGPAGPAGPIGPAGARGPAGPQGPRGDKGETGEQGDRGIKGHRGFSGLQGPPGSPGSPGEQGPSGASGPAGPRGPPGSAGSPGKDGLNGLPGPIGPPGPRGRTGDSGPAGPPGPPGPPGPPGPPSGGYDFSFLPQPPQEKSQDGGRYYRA
Sequence (P02466 86-1125, chain 2 of 2, further chain): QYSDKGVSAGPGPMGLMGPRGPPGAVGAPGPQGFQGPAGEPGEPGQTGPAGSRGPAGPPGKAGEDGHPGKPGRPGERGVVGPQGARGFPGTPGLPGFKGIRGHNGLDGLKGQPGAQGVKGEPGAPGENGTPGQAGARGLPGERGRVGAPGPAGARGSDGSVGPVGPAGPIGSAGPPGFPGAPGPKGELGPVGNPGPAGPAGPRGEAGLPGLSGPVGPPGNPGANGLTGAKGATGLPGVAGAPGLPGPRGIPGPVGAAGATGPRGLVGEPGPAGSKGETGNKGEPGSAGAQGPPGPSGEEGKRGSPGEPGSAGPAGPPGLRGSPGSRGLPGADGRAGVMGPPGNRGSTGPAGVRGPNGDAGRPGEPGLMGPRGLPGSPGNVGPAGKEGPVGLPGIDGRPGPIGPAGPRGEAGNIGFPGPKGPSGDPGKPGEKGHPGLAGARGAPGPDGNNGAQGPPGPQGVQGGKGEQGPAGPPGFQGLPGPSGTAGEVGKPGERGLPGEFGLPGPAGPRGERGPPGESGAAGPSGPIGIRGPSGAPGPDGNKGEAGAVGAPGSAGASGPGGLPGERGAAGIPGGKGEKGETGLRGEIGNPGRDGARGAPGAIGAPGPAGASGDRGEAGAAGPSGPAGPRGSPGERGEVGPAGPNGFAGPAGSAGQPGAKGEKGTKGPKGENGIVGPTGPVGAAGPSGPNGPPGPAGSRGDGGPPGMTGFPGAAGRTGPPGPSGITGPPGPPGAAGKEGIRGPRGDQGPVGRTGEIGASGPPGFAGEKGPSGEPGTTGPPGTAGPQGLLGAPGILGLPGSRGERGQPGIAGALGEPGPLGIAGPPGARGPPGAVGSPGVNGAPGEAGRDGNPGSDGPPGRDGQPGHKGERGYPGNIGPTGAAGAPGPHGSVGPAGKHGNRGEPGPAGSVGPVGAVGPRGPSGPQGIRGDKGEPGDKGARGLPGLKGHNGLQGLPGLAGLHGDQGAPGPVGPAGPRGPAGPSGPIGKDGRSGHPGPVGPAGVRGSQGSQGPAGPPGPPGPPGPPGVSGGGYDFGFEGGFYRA
Bridge positions count the residues as written; N and C are the ends. Square brackets hold non-standard residues; d marks the D form. Primed or numbered codes have the meaning given here. Ends that are not written are not given here. dBip = N[C@H](Cc1ccc(-c2ccccc2)cc1)C(=O)O; Phe(4-CN) = N#Cc1ccc(C[C@H](N)C(=O)O)cc1; Gd^T(3) = GdDTPA attached via thiourea; Pen = CC(C)(S)[C@H](N)C(=O)O; Gd^T″ = GdDTPA-thiourea; GdT = GdDTPA-thiourea
For each of the binders below, state its % bound.
Answer by giving the amount and then stating its unit.

Give recorded % bound. {Gd^T″}-GQWHCTTD[Phe(4-CN)]PHHYCLYG (disulfide 5-14 (inferred)) [Compound ID 883]
2%

Query % bound for {Gd^T″}-GQWHCTDRFPHHYCLYG (disulfide 5-14 (inferred)) [Compound ID 936]
5%

Name the recorded % bound of the binder listed here: GdT-GQWHCTTRFPHH[dBip]CLYG (disulfide 5-14 (inferred); not fully specified (C-terminus); also: gadolinium complex (GdDTPA)) [Compound ID 903]
5%

Indicate its recorded % bound; the binder in question is {Gd^T(3)}-GQWHCTTRFPHHY[Pen]LYG (disulfide 5-14; not fully specified (C-terminus)) [Compound ID 906]
5%

Given GQWTCSADEYTWHCNYE (disulfide 5-14 (inferred)) [SEQ ID NO 142] , respond with its % bound.
6%
